- testTarget: human P2X3 receptors (Homo sapiens, UniProt P56373)
- testDetails: Whole-cell patch-clamp concentration-activation, HEK293 cells stably expressing hP2X3
- measurementParameters: hP2X3, whole-cell, -50 mV, divalent-cation-free bath with 10 mM EGTA, normalised to 100 µM ATP
assayEndpoint: pEC50
Remember, pEC50 is on a log scale: it is -log10 of the molar concentration.

[
  {
    "compound": "COCC[N+]1=C(C=CC=C2N(CCCCCC(=O)NCCCCCCSc3nc(N)c4ncn(C5OC(COP(=O)(O)CP(=O)(O)OP(=O)(O)O)C(O)C5O)c4n3)c3ccc(S(=O)(=O)O)cc3C2(C)C)C(C)(C)c2cc(S(=O)(=O)[O-])ccc21 (stereo not drawn) [α,βMe-fATP, 2-[DY-547P1]-AHT-α,βMe-ATP]",
    "assayEndpoint": "pEC50",
    "assayResult": 5.09
  },
  {
    "compound": "COCC[N+]1=C(C=CC=C2N(CCCCCC(=O)NCCCCCCSc3nc(N)c4ncn(C5OC(COP(=O)(O)OP(=O)(O)OP(=O)(O)O)C(O)C5O)c4n3)c3ccc(S(=O)(=O)O)cc3C2(C)C)C(C)(C)c2cc(S(=O)(=O)[O-])ccc21 (stereo not shown) [fATP, 2-[DY-547P1]-AHT-ATP]",
    "assayEndpoint": "pEC50",
    "assayResult": 5.89
  },
  {
    "compound": "Nc1ncnc2c1ncn2[C@@H]1O[C@H](COP(=O)(O)OP(=O)(O)OP(=O)(O)O)[C@@H](O)[C@H]1O",
    "assayEndpoint": "pEC50",
    "assayResult": 5.96
  }
]

Query compound follows.
Data request: // lookup pEC50 for Nc1ncnc2c1ncn2[C@@H]1O[C@H](COP(=O)(O)CP(=O)(O)OP(=O)(O)O)[C@@H](O)[C@H]1O
Data returned: 5.02

* * *

- testTarget: human P2X2/3 receptors (Homo sapiens, UniProt P56373+Q9UBL9)
- Sequence (Q9UBL9 1-404 isoform Q9UBL9-2): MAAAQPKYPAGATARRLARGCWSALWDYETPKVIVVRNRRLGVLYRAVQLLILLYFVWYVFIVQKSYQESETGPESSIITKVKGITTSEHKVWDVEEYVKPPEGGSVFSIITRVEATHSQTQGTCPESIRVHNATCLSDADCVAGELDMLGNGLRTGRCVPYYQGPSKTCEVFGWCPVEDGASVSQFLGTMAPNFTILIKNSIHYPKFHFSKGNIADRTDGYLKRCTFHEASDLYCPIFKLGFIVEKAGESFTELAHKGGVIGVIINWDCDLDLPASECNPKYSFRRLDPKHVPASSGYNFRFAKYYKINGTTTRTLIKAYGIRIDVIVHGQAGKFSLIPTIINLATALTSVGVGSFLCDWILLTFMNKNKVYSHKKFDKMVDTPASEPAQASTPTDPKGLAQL
- Sequence (P56373 1-397): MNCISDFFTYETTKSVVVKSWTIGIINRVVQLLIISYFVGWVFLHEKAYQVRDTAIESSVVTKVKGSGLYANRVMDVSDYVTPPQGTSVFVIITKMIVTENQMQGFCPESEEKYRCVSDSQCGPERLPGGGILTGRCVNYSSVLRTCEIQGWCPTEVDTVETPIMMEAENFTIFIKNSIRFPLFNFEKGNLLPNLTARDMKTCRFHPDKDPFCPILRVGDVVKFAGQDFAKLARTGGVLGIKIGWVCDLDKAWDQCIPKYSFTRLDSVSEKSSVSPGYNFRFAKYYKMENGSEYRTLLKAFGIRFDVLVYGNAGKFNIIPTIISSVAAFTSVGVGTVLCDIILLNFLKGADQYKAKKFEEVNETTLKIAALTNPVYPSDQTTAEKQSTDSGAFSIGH
- testDetails: Whole-cell patch-clamp concentration-activation, HEK293 cells stably expressing hP2X2/3
- measurementParameters: hP2X2/3, whole-cell, -50 mV, divalent-cation-free bath with 10 mM EGTA, normalised to 100 µM ATP
assayEndpoint: EC50 (nM)
# value in nM; strip the unit string

A selection of reference data follows.
[
  {
    "molecule": "COCC[N+]1=C(C=CC=C2N(CCCCCC(=O)NCCCCCCSc3nc(N)c4ncn(C5OC(COP(=O)(O)CP(=O)(O)OP(=O)(O)O)C(O)C5O)c4n3)c3ccc(S(=O)(=O)O)cc3C2(C)C)C(C)(C)c2cc(S(=O)(=O)[O-])ccc21 (stereo not drawn) [α,βMe-fATP, 2-[DY-547P1]-AHT-α,βMe-ATP]",
    "readoutUnits": "nM",
    "EC50": 1500
  },
  {
    "molecule": "COCC[N+]1=C(C=CC=C2N(CCCCCC(=O)NCCCCCCSc3nc(N)c4ncn(C5OC(COP(=O)(O)OP(=O)(O)OP(=O)(O)O)C(O)C5O)c4n3)c3ccc(S(=O)(=O)O)cc3C2(C)C)C(C)(C)c2cc(S(=O)(=O)[O-])ccc21 (stereo not drawn) [fATP, 2-[DY-547P1]-AHT-ATP]",
    "readoutUnits": "nM",
    "EC50": 700
  }
]

Query molecule follows.
Data request: // lookup EC50 for Nc1ncnc2c1ncn2[C@@H]1O[C@H](COP(=O)(O)OP(=O)(O)OP(=O)(O)O)[C@@H](O)[C@H]1O
Data returned: 2700
